target-desc: human PD-L1 (human) (UniProt Q9NZQ7)
Sequence (Q9NZQ7 19-290): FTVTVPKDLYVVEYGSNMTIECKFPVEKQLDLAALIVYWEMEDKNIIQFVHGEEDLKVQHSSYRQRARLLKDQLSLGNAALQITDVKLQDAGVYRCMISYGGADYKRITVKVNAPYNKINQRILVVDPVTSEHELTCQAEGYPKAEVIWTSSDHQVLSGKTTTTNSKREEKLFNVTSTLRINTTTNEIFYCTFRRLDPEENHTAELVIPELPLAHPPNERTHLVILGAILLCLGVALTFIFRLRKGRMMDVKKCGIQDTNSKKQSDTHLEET
assay-text: flow cytometry, CHO cells expressing huPD-L1; MFI ratio to WT CD80 ECD-Fc (R&D)
// label = T if Fold change to WT is not less than 9 fold, otherwise F

variant CD80 IgV-Fc H18Y/E35D/M47L (Fc fusion) VIHVTKEVKEVATLSCGYNVSVEELAQTRIYWQKDKKMVLTMMSGDLNIWPEYKNRTIFDITNNLSIVILALRPSDEGTYECVVLKYEKDAFKREHLAEVTLSVKAD :: F

Textbook exercise: given the entry variant CD80 IgV-Fc Q33L/E35D/N48K/L85Q/L97Q (Fc fusion) VIHVTKEVKEVATLSCGHNVSVEELAQTRIYWLKDKKMVLTMMSGDMKIWPEYKNRTIFDITNNLSIVILALRPSDEGTYECVVQKYEKDAFKREHQAEVTLSVKAD , state whether its Fold change to WT is greater than or equal to 9 fold. F

For this binder, is measured Fold change to WT 9 fold or higher? variant CD80 IgV-Fc Q33L/E35D/M43V/M47I/A71G (Fc fusion) VIHVTKEVKEVATLSCGHNVSVEELAQTRIYWLKDKKMVLTMVSGDINIWPEYKNRTIFDITNNLSIVILGLRPSDEGTYECVVLKYEKDAFKREHLAEVTLSVKAD T

API: above_or_equal(metric=Fold change to WT, cutoff=9 fold) for item variant CD80 IgV-Fc Q27H/Q33L/E35D/M47V/N55D/L85Q/K89N (Fc fusion) VIHVTKEVKEVATLSCGHNVSVEELAHTRIYWLKDKKMVLTMMSGDVNIWPEYKDRTIFDITNNLSIVILALRPSDEGTYECVVQKYENDAFKREHLAEVTLSVKAD F

Threshold query (Fold change to WT >= 9 fold) on variant CD80 IgV-Fc H18Y/A26E/Q33L/E35D/M47L/L85Q (Fc fusion) VIHVTKEVKEVATLSCGYNVSVEELEQTRIYWLKDKKMVLTMMSGDLNIWPEYKNRTIFDITNNLSIVILALRPSDEGTYECVVQKYEKDAFKREHLAEVTLSVKAD T

Has variant CD80 IgV-Fc H18Y/Y31H/E35D/M47V/A71G/L85Q (Fc fusion) VIHVTKEVKEVATLSCGYNVSVEELAQTRIHWQKDKKMVLTMMSGDVNIWPEYKNRTIFDITNNLSIVILGLRPSDEGTYECVVQKYEKDAFKREHLAEVTLSVKAD a recorded Fold change to WT greater than or equal to 9 fold? T

Could you tell me if the measured Fold change to WT of variant CD80 IgV-Fc V22A/E23D/Q33L/E35D/M47V (Fc fusion) VIHVTKEVKEVATLSCGHNVSADELAQTRIYWLKDKKMVLTMMSGDVNIWPEYKNRTIFDITNNLSIVILALRPSDEGTYECVVLKYEKDAFKREHLAEVTLSVKAD reaches 9 fold or more? T
